- procedureDetails: In vitro metabolic stability in human liver microsomes (LC-MS)
- Assay type: in vitro ADME
- assaySetup: HLM 0.53 mg/mL, 1 mM NADPH, compound 10 µM, phosphate buffer pH 7.4, 37°C; percentage of peak area of trans isomer at start of incubation
experimentalReadout: % of compound remaining after 120 min incubation (%)

1. Cc1cc(S(N)(=O)=O)c(S/C(CCc2ccccc2)=N/Nc2ccc([N+](=O)[O-])cc2)cc1Cl : 58.23
2. Cc1cc(S(N)(=O)=O)c(S/C(=N/Nc2ccc([N+](=O)[O-])cc2)C(C)C)cc1Cl : 76.13
3. CCC(=NNc1ccc([N+](=O)[O-])cc1)Sc1cc(Cl)c(C)cc1S(N)(=O)=O : 53.51
4. Cc1ccc(/C(=N\Nc2ccc([N+](=O)[O-])cc2)Sc2cc(Cl)c(C)cc2S(N)(=O)=O)cc1 : 95.11
5. Cc1cc(S(N)(=O)=O)c(S/C(=N/Nc2ccc([N+](=O)[O-])cc2)c2ccc3ccccc3c2)cc1Cl : 99.40
6. COc1ccc(/C(=N\Nc2ccc([N+](=O)[O-])cc2)Sc2cc(Cl)c(C)cc2S(N)(=O)=O)cc1 : 95.33
7. Cc1cc(S(N)(=O)=O)c(S/C(CC(C)C)=N/Nc2ccc([N+](=O)[O-])cc2)cc1Cl : 79.95
